Where do these numbers come from? They come from patent US12440496B2.

- Experimental Target: hNPRA (Homo sapiens, UniProt P16066)
- Experimental Protocol: NPRA Functional Cell Assay (cGMP HTRF, NPRA HEK JumpIn stable cells)
- Condition Description: cGMP production, 1 hour at 37° C., 10-point dose response
pEC50: −log10 of the molar value.
Property: pEC50

Molecule | pEC50
CC(C)(C)[C@H]1CCc2nc3sc(C(=O)N[C@H](CCN[C@H]4C[C@@H](O)[C@@H](O)C4)c4ccc(-c5ccc(=O)[nH]c5)cc4)cc3cc2C1 (racemic) | 6.18

P: CN1CC(NC(=O)c2cccc([C@@H](CCN3CCC[C@H]3CC(=O)O)NC(=O)c3nc4cc5c(nc4s3)CC[C@H](C(C)(C)C)C5)c2)C1 (racemic)
Q: Cn1cncc1-c1ccc([C@@H](CCN2CCC(O)CC2)NC(=O)c2nc3cc4c(nc3s2)CC[C@H](C(C)(C)C)C4)cc1 (racemic)
**Query** Which record shows the lower pEC50: the first, P , or the second, Q ? Select an item and report its label.
**Result** Q

====

- Experimental Target: hNPRA (Homo sapiens)
- Construct: expressed in transfected cells
- Sequence (P16066 33-1061): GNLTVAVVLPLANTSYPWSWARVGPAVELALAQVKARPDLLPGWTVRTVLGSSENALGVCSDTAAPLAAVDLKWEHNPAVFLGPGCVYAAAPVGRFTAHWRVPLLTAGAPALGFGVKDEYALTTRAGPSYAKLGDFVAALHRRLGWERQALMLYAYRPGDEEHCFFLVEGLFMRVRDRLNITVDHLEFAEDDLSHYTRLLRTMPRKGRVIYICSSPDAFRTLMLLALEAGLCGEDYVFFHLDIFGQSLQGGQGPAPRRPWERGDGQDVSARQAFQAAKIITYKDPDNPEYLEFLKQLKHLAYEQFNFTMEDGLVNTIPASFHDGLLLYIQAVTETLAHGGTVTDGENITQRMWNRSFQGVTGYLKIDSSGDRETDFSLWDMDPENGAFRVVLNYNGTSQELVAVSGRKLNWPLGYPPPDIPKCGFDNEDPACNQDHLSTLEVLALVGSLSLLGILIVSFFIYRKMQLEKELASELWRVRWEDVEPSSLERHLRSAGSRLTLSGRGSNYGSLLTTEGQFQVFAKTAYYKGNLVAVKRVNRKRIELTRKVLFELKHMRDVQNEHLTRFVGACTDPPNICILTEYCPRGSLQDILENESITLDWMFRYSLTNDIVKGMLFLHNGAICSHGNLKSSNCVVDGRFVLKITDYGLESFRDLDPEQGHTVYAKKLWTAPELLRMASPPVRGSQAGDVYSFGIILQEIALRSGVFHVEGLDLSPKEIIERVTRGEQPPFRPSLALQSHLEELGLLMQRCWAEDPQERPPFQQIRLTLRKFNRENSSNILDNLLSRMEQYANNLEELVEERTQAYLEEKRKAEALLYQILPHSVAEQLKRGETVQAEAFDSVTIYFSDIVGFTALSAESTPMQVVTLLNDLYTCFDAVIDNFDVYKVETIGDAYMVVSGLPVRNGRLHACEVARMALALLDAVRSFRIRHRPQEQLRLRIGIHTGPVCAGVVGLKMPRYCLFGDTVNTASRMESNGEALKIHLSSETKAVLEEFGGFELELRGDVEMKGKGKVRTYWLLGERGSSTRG
- Experimental Protocol: NPRA Functional Cell Assay (cGMP HTRF, NPRA HEK JumpIn stable cells)
- Assay type: cell-based
- Condition Description: cGMP production, 1 hour at 37° C., 10-point dose response
Property: EC50 (nM)

Compound | EC50 / nM
O=C(O)C(F)(F)F.[2H]C([2H])([2H])N(CC[C@@H](NC(=O)c1nc2cc3c(nc2s1)CC[C@H](C(C)(C)C)C3)c1ccc(NS(=O)(=O)N(C)C)nc1)C([2H])([2H])[2H] (racemic) [Example 207] | 679
CC(C)(C)[C@H]1CCc2nc3sc(C(=O)N[C@H](CCNC4CCOCC4)c4ccc(-c5ccc(=O)[nH]c5)cc4)nc3cc2C1 (racemic) [Example 75] | 634
CC(C)(C)[C@H]1CCc2nc3sc(C(=O)N[C@H](CCN4CCC(O)CC4)c4cnc(-c5ccnnc5)c(F)c4)nc3cc2C1 [Example 266] | 142

P: CC1([C@H]2CCc3nc4sc(C(=O)N[C@H](CCN5CCC(O)CC5)c5ccc(-c6c[nH]c(=O)c(F)c6)cc5)nc4cc3C2)CC1 [Example 234]
Q: CC(C)(C)[C@H]1CCc2nc3sc(C(=O)N[C@H](CCN4CCC(O)CC4)c4ccccc4)cc3cc2C1 [Example 250]
**Query** Which record shows the lower EC50: the first, P , or the second, Q ? Select an item and report its label.
**Result** P
(P: 120 nM, Q: 632 nM)

a: CC(C)(C)[C@H]1CCc2nc3sc(C(=O)N[C@H](CCN4CCC(O)CC4)c4ccc(-c5c[nH]c(=O)c(F)c5)cc4)nc3cc2C1 [Example 236]
b: COCCN1CCN(CC[C@@H](NC(=O)c2cc3cc4c(nc3s2)CC[C@H](C(C)(C)C)C4)c2ccc(-c3ccc(=O)[nH]c3)cc2)CC1 (racemic) [Example 66]
c: CC(C)(C)[C@H]1CCc2nc3sc(C(=O)N[C@H](CCNCCO)c4ccc(-c5ccc(=O)[nH]c5)cc4)cc3cc2C1 (racemic) [Example 49]
d: O=C(N[C@H](CCN1CCC(O)CC1)c1ccc(-c2cn[nH]c2)cc1)c1nc2cc3c(nc2s1)CC[C@H](C1(C(F)(F)F)CC1)C3 [Example 268]
**Query** // sort entries: EC50, high to low Answer with the labels in sequence, matching the requested order.
**Result** d, b, c, a
(d: 2030 nM, b: 1330 nM, c: 682 nM, a: 140 nM)

P: CC(C)(C)[C@H]1CCc2nc3sc(C(=O)N[C@H](CCN4CCC(O)CC4)c4ccc(-c5ccc(=O)[nH]c5)nc4)nc3cc2C1 (racemic) [Example 195]
Q: CC(C)(C)[C@H]1CCc2nc3sc(C(=O)N[C@H](CCN4CCC(n5ccnc5)CC4)c4cccc(NS(C)(=O)=O)c4)cc3cc2C1 (racemic) [Example 17]
R: CC(C)C1(F)CCc2nc3sc(C(=O)N[C@H](CCN4CCC(O)CC4)c4ccc(N5CCOC5=O)cc4)nc3cc2C1 (stereo partly drawn) [Example 233]
**Query** // sort entries: EC50, high to low Answer with the labels in sequence, matching the requested order.
**Result** R, Q, P
(R: 2040 nM, Q: 1260 nM, P: 126 nM)
